So I've got a bunch of compounds here, and I need their pIC50 values.
- System: human non-small cell lung cancer cells (A549)
- MEASUREMENT_NOTES: Anti-proliferative activity, CCK-8 assay, A549
- Format: cell-based
- CONDITION_SUMMARY: 72 h incubation
Scale: pIC50 equals -log10([C]), with [C] in mol/L.

Request: Record request: pIC50 value, item CC(=S)Nc1cccc(-n2c(=O)n(C3CC3)c(=O)c3c(Nc4ccc(I)cc4F)n(C)c(=O)c(C)c32)c1
Response: 8.51

Request: Follow-up entry: CCC(=S)Nc1cccc(-n2c(=O)n(C3CC3)c(=O)c3c(Nc4ccc(I)cc4F)n(C)c(=O)c(C)c32)c1
Response: 8.44

Request: Follow-up entry: CC(=S)Nc1cccc(-n2c(=O)n(C)c(=O)c3c(Nc4ccc(I)cc4F)n(C)c(=O)c(C)c32)c1
Response: 8.59

Request: Follow-up entry: CC(=O)Nc1cccc(-n2c(=O)n(C3CC3)c(=O)c3c(Nc4ccc(I)cc4F)n(C)c(=O)c(C)c32)c1 [Trametinib, reference compound]
Response: 7.48

Request: Follow-up entry: CC(=S)Nc1cccc(-n2c(=O)n(C3CCCC3)c(=O)c3c(Nc4ccc(I)cc4F)n(C)c(=O)c(C)c32)c1
Response: 8.62

Request: Follow-up entry: Cc1c(=O)n(C)c(Nc2ccc(I)cc2F)c2c(=O)n(C3CC3)c(=O)n(-c3cccc(NC(=S)CO)c3)c12
Response: 8.24

Request: Follow-up entry: Cc1c(=O)n(C)c(Nc2ccc(I)cc2F)c2c(=O)n(C3CC3)c(=O)n(-c3cccc(NC(=S)C4CC4)c3)c12
Response: 8.41

====

So I've got a bunch of molecules here, and I need their Tumor volume (Day 30) values.
- Tested on: human HCT116 subcutaneous xenograft tumors
- MEASUREMENT_NOTES: In vivo anti-tumor assay, subcutaneous xenograft model
- Parameters: species or system BALB/c nude mouse
- CONDITION_SUMMARY: 3 mg/kg P.O. QD × 30 days, Day 30
Express it in mm^3; write the number only.

Request: What is its Tumor volume (Day 30) for human HCT116 subcutaneous xenograft tumors? Entry: CC(=S)Nc1cccc(-n2c(=O)n(C3CC3)c(=O)c3c(Nc4ccc(I)cc4F)n(C)c(=O)c(C)c32)c1
Response: 165

Request: Follow-up entry: Cc1c(=O)n(C)c(Nc2ccc(I)cc2F)c2c(=O)n(C3CC3)c(=O)n(-c3cccc(NC(=S)CO)c3)c12
Response: 140

Request: Follow-up entry: CC(=O)Nc1cccc(-n2c(=O)n(C3CC3)c(=O)c3c(Nc4ccc(I)cc4F)n(C)c(=O)c(C)c32)c1 [Trametinib, reference compound]
Response: 305

Request: Follow-up entry: Cc1c(=O)n(C)c(Nc2ccc(I)cc2F)c2c(=O)n(C3CC3)c(=O)n(-c3cccc(NC(=S)CN)c3)c12
Response: 128

====

- MEASURED_ON: UniProt P36507
- Sequence (P36507 whole entry): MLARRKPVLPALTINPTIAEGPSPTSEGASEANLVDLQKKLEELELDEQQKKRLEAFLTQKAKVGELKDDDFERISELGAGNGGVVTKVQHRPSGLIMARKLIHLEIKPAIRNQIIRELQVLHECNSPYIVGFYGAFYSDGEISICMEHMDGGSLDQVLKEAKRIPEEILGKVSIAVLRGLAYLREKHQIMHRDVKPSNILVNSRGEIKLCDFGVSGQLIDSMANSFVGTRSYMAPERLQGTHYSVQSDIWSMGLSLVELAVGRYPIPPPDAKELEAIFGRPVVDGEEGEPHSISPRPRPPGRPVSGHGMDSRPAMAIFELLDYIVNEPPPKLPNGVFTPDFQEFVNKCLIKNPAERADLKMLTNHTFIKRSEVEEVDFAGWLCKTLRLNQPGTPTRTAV
- MEASUREMENT_NOTES: Raf-MEK-ERK cascade kinase assay using recombinant protein (MEK2)
- CONDITION_SUMMARY: 10 μM ATP, active B-Raf (V599E), 30° C. 30 minutes
So I've got a bunch of compounds here, and I need their IC50 values.
Express it in nM; write the number only.

Request: Record request: IC50 value, item CC(=S)Nc1cccc(-n2c(=O)n(C)c(=O)c3c(Nc4ccc(I)cc4F)n(C)c(=O)c(C)c32)c1
Response: 1.09

Request: Follow-up entry: Cc1c(=O)n(C)c(Nc2ccc(I)cc2F)c2c(=O)n(C3CC3)c(=O)n(-c3cccc(NC(=S)CN)c3)c12
Response: 2.13

Request: Follow-up entry: CC(=S)Nc1cccc(-n2c(=O)n(C(C)C)c(=O)c3c(Nc4ccc(I)cc4F)n(C)c(=O)c(C)c32)c1
Response: 0.98

Request: Follow-up entry: CCC(=S)Nc1cccc(-n2c(=O)n(C3CC3)c(=O)c3c(Nc4ccc(I)cc4F)n(C)c(=O)c(C)c32)c1
Response: 1.19
